All values here come from patent US12492173B2.

- Tested on: Veronica persica
- measurement.description: Pre-emergence herbicidal action, VERPE
- Assay type: in vivo
- Set-up: key: % activity: 100 = plants have died, 0 = like control plants
- assay.conditions: comparative experiment, 80 g of a.i./ha
- Description: 1. Pre-Emergence Herbicidal Action Against Harmful Plants Seeds of monocotyledonous and dicotyledonous weed plants and crop plants are laid out in sandy loam soil in wood-fiber pots and covered with soil. […] The damage to the test plants is scored visually after a test period of 3 weeks by comparison with untreated controls (herbicidal activity in percent (%): 100% activity=the plants have died, 0% activity=like control plants). […]
Quick reference for Herbicidal action against VERPE among some compounds
attribute.measured: Herbicidal action against VERPE

compound: CCSc1c(C(F)(F)F)ccc(C(=O)Nc2nnnn2C)c1Br [Example V-11, reference compound]
attribute.measured: Herbicidal action against VERPE
reported.measurement: 10
--
compound: CCS(=O)(=O)c1c(C(F)(F)F)ccc(C(=O)Nc2nnnn2C)c1Br [Example V-13, reference compound]
attribute.measured: Herbicidal action against VERPE
reported.measurement: 0
--
compound: CCSCc1c(C(F)(F)F)ccc(C(=O)Nc2nnnn2C)c1Br [Example 1-383]
attribute.measured: Herbicidal action against VERPE
reported.measurement: 100
--
compound: CCS(=O)(=O)Cc1c(C(F)(F)F)ccc(C(=O)Nc2nnnn2C)c1Br [Example 1-385]
attribute.measured: Herbicidal action against VERPE
reported.measurement: 100

====

Quick reference for herbicidal action AVEFA among some compounds
- Test system: Avena fatua
- measurement.description: Post-emergence herbicidal action, AVEFA
- Type: in vivo
- Parameters: key: % herbicidal action vs untreated; 100 = plants died, 0 = like control
- assay.conditions: Dosage 80 g/ha

compound: CCCn1nnnc1NC(=O)c1ccc(C(F)(F)F)c(CSC)c1OC [Example 3-134]
herbicidal action AVEFA: 90
--
compound: CCCn1nnnc1NC(=O)c1ccc(C(F)(F)F)c(CSCC)c1Br [Example 3-383]
herbicidal action AVEFA: 90
--
compound: CCCn1nnnc1NC(=O)c1ccc(C(F)(F)F)c(CSCC)c1C [Example 3-86]
herbicidal action AVEFA: 80
--
compound: CCn1nnnc1NC(=O)c1ccc(C(F)(F)F)c(CS(C)(=O)=O)c1SC [Example 2-163]
herbicidal action AVEFA: 100
--
compound: CCn1nnnc1NC(=O)c1ccc(C(F)F)c(CS(=O)(=O)CC)c1Cl [Example 2-325]
herbicidal action AVEFA: 90
--
compound: CCCn1nnnc1NC(=O)c1ccc(C(F)(F)F)c(CS(=O)(=O)CC)c1Cl [Example 3-301]
herbicidal action AVEFA: 90
--
compound: CCn1nnnc1NC(=O)c1ccc(I)c(C[S+](C)[O-])c1Cl (stereo not drawn) [Example 2-363]
herbicidal action AVEFA: 90
--
compound: CSCc1c(C(F)F)ccc(C(=O)Nc2nnnn2C)c1Cl [Example 1-320]
herbicidal action AVEFA: 100
--
compound: CCn1nnnc1NC(=O)c1ccc(Cl)c(CSC)c1Cl [Example 2-559]
herbicidal action AVEFA: 100
--
compound: CCS(=O)(=O)Cc1c(C(F)(F)F)ccc(C(=O)Nc2nnnn2C)c1Cl [Example 1-301]
herbicidal action AVEFA: 100
--
compound: C=CCSCc1c(C(F)(F)F)ccc(C(=O)Nc2nnnn2CCC)c1Cl [Example 3-308]
herbicidal action AVEFA: 100
--
compound: Cn1nnnc1NC(=O)c1ccc(C(F)(F)F)c(C[S+](C)[O-])c1F (stereo not drawn) [Example 1-243]
herbicidal action AVEFA: 80
--
compound: CCCn1nnnc1NC(=O)c1ccc(C(F)(F)F)c(CSCC)c1Cl [Example 3-299]
herbicidal action AVEFA: 80
--
compound: CCn1nnnc1NC(=O)c1ccc(C(F)(F)F)c(C[S+](C)[O-])c1SC (stereo not drawn) [Example 2-162]
herbicidal action AVEFA: 100
--
compound: CCCn1nnnc1NC(=O)c1ccc(C(F)F)c(C[S+]([O-])CC)c1Cl (stereo not drawn) [Example 3-324]
herbicidal action AVEFA: 100
--
compound: CSCc1c(C(F)(F)F)ccc(C(=O)Nc2nnnn2C)c1F [Example 1-242]
herbicidal action AVEFA: 80
--
compound: CCCn1nnnc1NC(=O)c1ccc(I)c(C[S+](C)[O-])c1Cl (stereo not drawn) [Example 3-363]
herbicidal action AVEFA: 80
--
compound: CCCn1nnnc1NC(=O)c1ccc(C(F)F)c(CSCC)c1Cl [Example 3-323]
herbicidal action AVEFA: 90
--
compound: CCn1nnnc1NC(=O)c1ccc(C(F)(F)F)c(CS(=O)(=O)CC)c1Cl [Example 2-301]
herbicidal action AVEFA: 90
--
compound: CCn1nnnc1NC(=O)c1ccc(C(F)(F)F)c(CS(=O)(=O)CC)c1C [Example 2-88]
herbicidal action AVEFA: 90
--
compound: CCCn1nnnc1NC(=O)c1ccc(C(F)F)c(CSC)c1SC [Example 3-170]
herbicidal action AVEFA: 80
--
compound: CCn1nnnc1NC(=O)c1ccc(C(F)(F)F)c(C[S+]([O-])CC2CC2)c1Cl (stereo not drawn) [Example 2-315]
herbicidal action AVEFA: 90
--
compound: COCC[S+]([O-])Cc1c(C(F)(F)F)ccc(C(=O)Nc2nnnn2C)c1Cl (racemic) [Example 1-306]
herbicidal action AVEFA: 80
--
compound: Cn1nnnc1NC(=O)c1ccc(Cl)c(CS(C)(=O)=O)c1Cl [Example 1-561]
herbicidal action AVEFA: 90
--
compound: CCSCc1c(C(F)(F)F)ccc(C(=O)Nc2nnnn2C)c1SCC [Example 1-182]
herbicidal action AVEFA: 80
--
compound: CCCn1nnnc1NC(=O)c1ccc(C(F)(F)F)c(CSC)c1Cl [Example 3-296]
herbicidal action AVEFA: 90
--
compound: CCSCc1c(C(F)F)ccc(C(=O)Nc2nnnn2C)c1SCC [Example 1-191]
herbicidal action AVEFA: 80
--
compound: Cn1nnnc1NC(=O)c1ccc(C(F)(F)F)c(CS(C)(=O)=O)c1C(F)(F)C(F)(F)F [Example 1-552]
herbicidal action AVEFA: 90
--
compound: CCCn1nnnc1NC(=O)c1ccc(C(F)F)c(CS(=O)(=O)CC)c1Cl [Example 3-325]
herbicidal action AVEFA: 100
--
compound: CCn1nnnc1NC(=O)c1ccc(C(F)(F)F)c(CSCC(F)(F)F)c1Cl [Example 2-311]
herbicidal action AVEFA: 90
--
compound: CCCn1nnnc1NC(=O)c1ccc(S(C)(=O)=O)c(CS(C)(=O)=O)c1C [Example 3-39]
herbicidal action AVEFA: 80
--
compound: CSCc1c(C(F)F)ccc(C(=O)Nc2nnnn2C)c1C [Example 1-107]
herbicidal action AVEFA: 80
--
compound: CCCn1nnnc1NC(=O)c1ccc(C(F)F)c(CSC)c1C [Example 3-107]
herbicidal action AVEFA: 80
--
compound: CSCc1c(C)ccc(C(=O)Nc2nnnn2C)c1Cl [Example 1-287]
herbicidal action AVEFA: 80
--
compound: CCCn1nnnc1NC(=O)c1ccc(C(F)F)c(CSC)c1Cl [Example 3-320]
herbicidal action AVEFA: 90
--
compound: CCn1nnnc1NC(=O)c1ccc(C(F)F)c(CSC)c1Cl [Example 2-320]
herbicidal action AVEFA: 90

====

- Test system: Avena fatua
- measurement.description: Post-emergence herbicidal action, AVEFA
- Format: in vivo
- Design: key: % herbicidal action vs untreated; 100 = plants died, 0 = like control
- assay.conditions: post-emergence, dosage 80 g/ha
Quick reference for herbicidal action AVEFA among some compounds
attribute.measured: herbicidal action AVEFA (%)

compound: CCn1nnnc1NC(=O)c1ccc(C(F)(F)F)c(CSC)c1Cl [Example 2-296]
system: Avena fatua
reported.measurement: 100

compound: CCSCc1c(C(F)(F)F)ccc(C(=O)Nc2nnnn2CC)c1Cl [Example 2-299]
system: Avena fatua
reported.measurement: 100

compound: CCn1nnnc1NC(=O)c1ccc(C(F)(F)F)c(CSCCOC)c1Cl [Example 2-305]
system: Avena fatua
reported.measurement: 80

compound: CCn1nnnc1NC(=O)c1ccc(C(F)(F)F)c(CSC)c1Br [Example 2-380]
system: Avena fatua
reported.measurement: 100

compound: Cc1c(C(=O)Nc2nnnn2C)ccc(C(F)(F)F)c1C[S+](C)[O-] (stereo not drawn) [Example 1-84]
system: Avena fatua
reported.measurement: 90

compound: Cn1nnnc1NC(=O)c1ccc(C(F)(F)F)c(CS(C)(=O)=O)c1Cl [Example 1-298]
system: Avena fatua
reported.measurement: 100

compound: CCn1nnnc1NC(=O)c1ccc(C(F)(F)F)c(C[S+](C)[O-])c1Br (stereo not drawn) [Example 2-381]
system: Avena fatua
reported.measurement: 100

compound: CCSCc1c(C(F)(F)F)ccc(C(=O)Nc2nnnn2C)c1Cl [Example 1-299]
system: Avena fatua
reported.measurement: 90

compound: CCn1nnnc1NC(=O)c1ccc(C(F)(F)F)c(C[S+](C)[O-])c1Cl (stereo not drawn) [Example 2-297]
system: Avena fatua
reported.measurement: 100

compound: CSCc1c(I)ccc(C(=O)Nc2nnnn2C)c1Cl [Example 1-362]
system: Avena fatua
reported.measurement: 100

compound: CSCc1c(Cl)ccc(C(=O)Nc2nnnn2C)c1Cl [Example 1-559]
system: Avena fatua
reported.measurement: 100

compound: CCS(=O)(=O)Cc1c(C(F)(F)F)ccc(C(=O)Nc2nnnn2C)c1Br [Example 1-385]
system: Avena fatua
reported.measurement: 100

compound: Cn1nnnc1NC(=O)c1ccc(C(F)(F)F)c(CS(=O)(=O)C2CC2)c1Cl [Example 1-304]
system: Avena fatua
reported.measurement: 100

compound: CSCc1c(C(F)(F)F)ccc(C(=O)Nc2nnnn2C)c1C [Example 1-83]
system: Avena fatua
reported.measurement: 90

compound: CCSCc1c(C(F)(F)F)ccc(C(=O)Nc2nnnn2CC)c1Br [Example 2-383]
system: Avena fatua
reported.measurement: 100

compound: CC[S+]([O-])Cc1c(C(F)(F)F)ccc(C(=O)Nc2nnnn2C)c1Br (racemic) [Example 1-384]
system: Avena fatua
reported.measurement: 100

compound: CCn1nnnc1NC(=O)c1ccc(C(F)F)c(C[S+]([O-])CC)c1Cl (stereo not drawn) [Example 2-324]
system: Avena fatua
reported.measurement: 100

compound: Cn1nnnc1NC(=O)c1ccc(C(F)(F)F)c(C[S+]([O-])CC(F)(F)F)c1Cl (racemic) [Example 1-312]
system: Avena fatua
reported.measurement: 90
